Assay protocol: Quantitative High-Throughput drug screen in 47 multiple myeloma cell lines against the NCATS MIPE library collection: KMS12PE_JCRB cell viability assay (AID 1918972); further: nearly all actives have a fitted effect of over 30% in size;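 on viability: 100% = DMSO only wells and 0% = wells with media alone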
Experimental context: KMS12PE myeloma viability, CellTiter-Glo ATP, 48 h; series mostly up to 45.8 µM
Records with an inconclusive call do not appear. Active and inactive are the calls of the source. The call rests on the fitted dose curve; in most records, active means well fitted cell-killing curve with a large enough effect; inconclusive means small, poorly fitted or top-dose-only effect, or effect the other way; inactive means no such curve, though single readings can be large or run the other way.
Assign a class; possible classes are class 1 = active, class 0 = inactive

Worked set:
Substance smiles: Cc1cccc(C)c1NC(=O)CN1CCCC1=O
Category label: class 0
--
Substance smiles: CN(C)CCc1ccc(O)cc1
Category label: class 0

For the next question, use this compound.
Dear all, I need the recorded test outcome for "N[C@@H](Cc1ccc(N(CCCl)CCCl)cc1)C(=O)O" , thank you.
class 1

---

Assay protocol: qHTS for Inhibitors of the Functional Ribonucleoprotein Complex (vRNP) of Lymphocytic Choriomeningitis Arenaviruses (LCMV): Viability assay - alamar blue signal for LCMV Primary Screen (AID 1347085); further: nearly all actives have a fitted effect of over 80% in size
Experimental context: alamar blue viability counter-screen, LCMV vRNP screen cells; series mostly up to 57.5 µM
Records with an inconclusive call do not appear. Activity calls are given as the source filed them. The call rests on the fitted dose curve; tested in HEK293 reporter line.
Readout label: outcome

Molecule: CS(=O)(=O)OCCCCOS(C)(=O)=O
Meas value: inactive
//
Molecule: CN1C(=O)CC(C)(c2ccccc2)C1=O (stereo not drawn)
Meas value: inactive
//
Molecule: CN1C(=S)CN=C(c2ccccc2)c2cc(Cl)ccc21
Meas value: inactive

---

Assay protocol: Primary qHTS for inhibitors of MERS-S pseudo-typed particle cell entry (AID 1479149); further: nearly all actives have a fitted effect of over 60% in size
Experimental context: MERS-S pseudotyped particle entry, luciferase; series mostly up to 57.1 µM
Records with an inconclusive call do not appear. Activity calls are given as the source filed them. The call rests on the fitted dose curve.
Readout label: outcome

Recorded results for 4 compounds are shown here.
Substance smiles: CC(C)(C)C(=O)OCOP(=O)(COCCn1cnc2c(N)ncnc21)OCOC(=O)C(C)(C)C
outcome: inactive

Substance smiles: Cc1cn([C@H]2C[C@H](N=[N+]=[N-])[C@@H](CO)O2)c(=O)[nH]c1=O
outcome: inactive

Substance smiles: COc1cc(Cc2cnc(N)nc2N)cc(OC)c1OC
outcome: inactive

Substance smiles: N[C@@H]1C[C@H]1c1ccccc1
outcome: inactive

What measured outcome goes with "Oc1ccccc1-c1ccccc1" ?
inactive

GET /values?readout=outcome&item= "CS(=O)(=O)OCCCCOS(C)(=O)=O"
inactive

---

Tested on: CP250
Assay protocol: qHTS profiling for inhibitors of Plasmodium falciparum proliferation (AID 504749);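 further: 0% = DMSO vehicle and full inhibition = artemisinin control; nearly all actives have a fitted effect of over 60% in size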
Experimental context: P. falciparum in erythrocytes, SYBR Green DNA, 72 h; series mostly up to 28.7 µM
Results filed as inconclusive are left out. Calls of active or inactive are those of the source. The call rests on the fitted dose curve; in most records, active means well fitted inhibition curve with a large enough effect; inconclusive means small, poorly fitted or top-dose-only effect; inactive means flat fitted curve, though single readings scatter.
Returns: one label drawn from active, inactive

Compound: CC(C)CC(N(C)C)C1(c2ccc(Cl)cc2)CCC1 (centres undefined)
Category label: inactive

Compound: CCN(CC)CCN1C(=O)CN=C(c2ccccc2F)c2cc(Cl)ccc21
Category label: inactive

Compound: CC(C)(N)Cc1ccc(Cl)cc1
Category label: inactive

Compound: CC[C@@H](CO)NC(=O)[C@@H]1C=C2c3cccc4[nH]cc(c34)C[C@H]2N(C)C1
Category label: inactive

Compound: Clc1cccc(N2CCNCC2)c1
Category label: inactive

# outcome recorded in this test, key = "NCCc1cc(O)c(O)cc1O"
inactive

---

Assay protocol: qHTS of pediatric cancer cell lines to identify multiple opportunities for drug repurposing: Primary screen for Saos-2 cells (AID 1347097); further: nearly all actives have a fitted effect of over 40% in size
Experimental context: Saos-2 viability, CellTiter-Glo ATP luminescence, 48 h; series mostly up to 46 µM
Results filed as inconclusive are left out. The source made the active and inactive calls. The call rests on the fitted dose curve; in most records, active means well fitted cell-killing curve with a large enough effect; inconclusive means small, poorly fitted or top-dose-only effect; inactive means no such curve, though single readings can be large or run the other way.
// one of t (active), f (inactive), no free text

Take a look at these entries with their results.
Compound: c1ccc2c(c1)OCC(C1=NCCN1)O2 (stereo unspecified)
Category label: t
--
Compound: CC(=O)Nc1cc([As](=O)(O)O)ccc1O
Category label: f
--
Compound: CCN(CC)C(=O)N[C@@H]1C=C2c3cccc4[nH]cc(c34)C[C@@H]2N(C)C1
Category label: f

For this compound, state the assay outcome: "C#CCOC(C(=O)OCCN(C)C)(c1ccccc1)c1ccccc1"
f

In this assay, the call recorded for "FC(F)(F)c1cccc(C2=CCN(CCc3ccc4ccccc4c3)CC2)c1" was what?
f

Tell me the recorded outcome of this test for "CCOP(=S)(OCC)Oc1cc(C)nc(C(C)C)n1" .
f

Just curious, what result did "CN(C)CCN(C)CCc1ccc(Cl)c(Cl)c1" get here?
f

Test call, this compound: "Cc1sc2c(c1C)C(c1ccc(Cl)cc1)=N[C@@H](CC(=O)OC(C)(C)C)c1nnc(C)n1-2"
t

For CC(O)(CS(=O)(=O)c1ccc(F)cc1)C(=O)Nc1ccc(C#N)c(C(F)(F)F)c1 (stereo unspecified) , what call appears in the results of this test?
t

What outcome does the record of this test show for "O=C(O)C(=O)c1cn(Cc2ccccc2)c2ccc(-c3ccc(OC(F)(F)F)cc3)cc12" ?
t

How was "CN1C(=S)CN=C(c2ccccc2)c2cc(Cl)ccc21" classified in this test?
f
